molecular target: recombinant human PDK1 (Homo sapiens, UniProt O15530); construct: containing amino acids 51-556 of the human PDK1 enzyme; made in house; host or cells: Sf9 insect cells; test: PDK1 IMAP fluorescence polarization assay (inhibition of peptide substrate phosphorylation); assay type: biochemical; settings: Table 10; compounds 97-132
pIC50: −log10 of the molar value.
A collection of compounds and their measured pIC50

Below, each entry is followed by its recorded pIC50 result.
>>> reported("NCC1CCN(c2c(F)cccc2NC(=O)c2nc(-c3cc(N4CCOCC4)nc(N)n3)c[nH]2)CC1")
"7.30 to 9.00"
>>> reported("CNc1nc(-c2c[nH]c(C(=O)Nc3ccccc3N3CCNCC3)n2)cc(N2CC(C(=O)NC3CCCCC3)CCC2C)n1 (racemic)")
"7.30 to 9.00"
>>> reported("CNc1nc(-c2c[nH]c(C(=O)Nc3cccc(F)c3N3CCC(CN)CC3)n2)cc(N2CC[C@@](COC)(C(=O)NC3CC3)C2)n1")
"7.30 to 9.00"

Query (compound): "CNc1nc(-c2c[nH]c(C(=O)Nc3cccc(F)c3N3CCC(CN)CC3)n2)cc(N2CCN[C@@H](C)C2)n1" ; field requested: pIC50
7.30 to 9.00

# lookup: pIC50 of "CNc1nc(-c2c[nH]c(C(=O)Nc3cccc(F)c3N3CCC(CN)CC3)n2)cc(N2CC[C@@](COC)(C(=O)NC3CCCCC3)C2)n1"
7.30 to 9.00

I am curious: what pIC50 value has been reported for "CNc1nc(-c2c[nH]c(C(=O)Nc3cccc(F)c3N3CCC(CN)CC3)n2)cc(N2CCC[C@@H](N)C2)n1" ?
7.30 to 9.00

###

target: recombinant human PDK1 (Homo sapiens); construct: containing amino acids 51-556 of the human PDK1 enzyme; made in house; host or cells: Sf9 insect cells; assay: PDK1 IMAP fluorescence polarization assay (inhibition of peptide substrate phosphorylation); type: biochemical; settings: Table 6; 10 nM PDK1 enzyme, 100 nM peptide substrate, 100 nM PIFtide, 2.5 uM ATP, 1.5 hours
pIC50: −log10 of the molar value.
ASSAY METRIC: pIC50

>>> reported("CCc1cc(-c2c[nH]c(C(=O)Nc3cccc(F)c3N3CCC(CN)CC3)n2)ccn1")
"7.30 to 9.00"
>>> reported("Cc1cc(-c2c[nH]c(C(=O)Nc3cccc(F)c3N3CCC(C(=O)N(C)C)CC3)n2)ccn1")
"5.30 to 6.00"
>>> reported("N[C@@H]1CCCN(c2c(F)cccc2NC(=O)c2nc(-c3ccnc(C(F)(F)F)c3)c[nH]2)C1")
"6.60 to 7.29"

Turning now to a further record.
Using the record for "NCC1CCN(c2c(F)cccc2NC(=O)c2nc(-c3cncnc3)c[nH]2)CC1" , report its pIC50.
5.30 to 6.00

###

target: recombinant human PDK1 (Homo sapiens); construct: containing amino acids 51-556 of the human PDK1 enzyme; made in house; host or cells: Sf9 insect cells; experiment: PDK1 IMAP fluorescence polarization assay (inhibition of peptide substrate phosphorylation); type: biochemical; conditions: Table 10; compounds 97-132
pIC50: −log10 of the molar value.
ASSAY METRIC: pIC50

>>> reported("Cc1cc(-c2c[nH]c(C(=O)Nc3cccc(F)c3N3CCC[C@@H](N)C3)n2)cc(Cl)n1")
"6.00 to 6.60"
>>> reported("CNc1nc(-c2c[nH]c(C(=O)Nc3ccccc3N3CCC4(CC3)OCCO4)n2)cc(N2CC(C(=O)NC3CCCCC3)CCC2C)n1 (racemic)")
"7.30 to 9.00"
>>> reported("CNc1nc(-c2c[nH]c(C(=O)Nc3cccc(F)c3N3CCO[C@@H](CN)C3)n2)cc(N2CC(C(=O)NC3CCCCC3)CCC2C)n1 (mixture of isomers)")
"7.30 to 9.00"
>>> reported("CNc1nc(-c2c[nH]c(C(=O)Nc3ccccc3N3CCNCC3)n2)cc(N2C[C@@H](C(=O)NC3CCCCC3)CC[C@@H]2C)n1 (racemic)")
"6.60 to 7.29"
>>> reported("CNc1nc(-c2c[nH]c(C(=O)Nc3cccc(F)c3N3CCC[C@@H](N)C3)n2)cc(N2CC(C(=O)NC3CCCCC3)CCC2C)n1 (mixture of isomers)")
"7.30 to 9.00"

Shifting focus to the compound that follows.
Identify the measured pIC50 of "CNc1nc(-c2c[nH]c(C(=O)Nc3cccc(F)c3N3CCC(CN)CC3)n2)cc(N2CCC(CN)CC2)n1" for recombinant human PDK1 (Homo sapiens).
7.30 to 9.00

###

Target: recombinant human PDK1 (Homo sapiens)
Construct: containing amino acids 51-556 of the human PDK1 enzyme; made in house; host or cells: Sf9 insect cells
Sequence (O15530 51-556): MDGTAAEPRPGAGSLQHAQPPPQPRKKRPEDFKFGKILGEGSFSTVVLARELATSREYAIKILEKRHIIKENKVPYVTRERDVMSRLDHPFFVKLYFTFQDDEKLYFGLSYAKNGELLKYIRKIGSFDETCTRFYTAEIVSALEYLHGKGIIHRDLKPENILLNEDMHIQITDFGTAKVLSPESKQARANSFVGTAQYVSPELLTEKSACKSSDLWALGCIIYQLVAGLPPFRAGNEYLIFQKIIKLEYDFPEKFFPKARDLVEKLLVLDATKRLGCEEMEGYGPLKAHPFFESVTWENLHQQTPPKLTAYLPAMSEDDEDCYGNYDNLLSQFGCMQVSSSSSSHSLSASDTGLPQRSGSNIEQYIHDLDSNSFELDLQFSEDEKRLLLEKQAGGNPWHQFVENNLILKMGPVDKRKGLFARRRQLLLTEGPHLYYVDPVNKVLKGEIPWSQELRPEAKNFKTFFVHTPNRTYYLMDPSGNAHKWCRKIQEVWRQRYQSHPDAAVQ
Experiment: PDK1 IMAP fluorescence polarization assay (inhibition of peptide substrate phosphorylation)
Format: biochemical
Conditions: Table 6; 10 nM PDK1 enzyme, 100 nM peptide substrate, 100 nM PIFtide, 2.5 uM ATP, 1.5 hours
pIC50: −log10 of the molar value.
Attribute: pIC50

Below, each entry is followed by its recorded pIC50 result.
>>> reported("Cc1cc(-c2c[nH]c(C(=O)Nc3cccc(F)c3N3CCC(C)(CN)CC3)n2)ccn1")
"6.60 to 7.29"
>>> reported("NCC1CCN(c2c(F)cccc2NC(=O)c2nc(-c3cccc(CCO)c3)c[nH]2)CC1")
"6.60 to 7.29"
>>> reported("N[C@@H]1CCCN(c2c(F)cccc2NC(=O)c2nc(-c3ccncc3)c[nH]2)C1")
"6.00 to 6.60"
>>> reported("Cc1cc(-c2c[nH]c(C(=O)Nc3cccc(F)c3N3CCC(C(N)=O)CC3)n2)ccn1")
"5.30 to 6.00"
>>> reported("CN(C)CCOc1ccccc1NC(=O)c1nc(-c2c[nH]c3ccccc23)c[nH]1")
"6.00 to 6.60"

Switching to the query record.
I'd like to know its pIC50. The compound in question is Cc1cc(-c2c[nH]c(C(=O)Nc3cccc(F)c3N3CCC(C(=O)N4CC5CC4CO5)CC3)n2)ccn1 (stereo not shown)
5.30 to 6.00

###

Molecular target: recombinant human PDK1 (Homo sapiens, UniProt O15530)
Construct: containing amino acids 51-556 of the human PDK1 enzyme; made in house; host or cells: Sf9 insect cells
Sequence (O15530 51-556): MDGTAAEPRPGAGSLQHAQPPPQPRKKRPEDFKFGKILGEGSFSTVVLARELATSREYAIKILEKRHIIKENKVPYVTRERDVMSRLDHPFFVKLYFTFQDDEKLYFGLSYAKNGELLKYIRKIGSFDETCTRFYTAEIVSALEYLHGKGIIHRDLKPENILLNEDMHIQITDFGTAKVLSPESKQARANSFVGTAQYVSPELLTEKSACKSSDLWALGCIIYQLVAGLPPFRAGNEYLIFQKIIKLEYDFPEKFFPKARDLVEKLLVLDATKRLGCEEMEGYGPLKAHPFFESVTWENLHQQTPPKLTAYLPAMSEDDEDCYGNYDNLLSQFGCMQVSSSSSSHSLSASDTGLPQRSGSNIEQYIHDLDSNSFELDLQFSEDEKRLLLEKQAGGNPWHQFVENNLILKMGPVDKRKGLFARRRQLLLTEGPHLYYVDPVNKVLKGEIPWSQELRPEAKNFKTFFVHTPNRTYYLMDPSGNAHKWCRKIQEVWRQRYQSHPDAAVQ
Test: PDK1 IMAP fluorescence polarization assay (inhibition of peptide substrate phosphorylation)
Assay type: biochemical
Conditions: Table 6; 10 nM PDK1 enzyme, 100 nM peptide substrate, 100 nM PIFtide, 2.5 uM ATP, 1.5 hours
# IC50 values compiled below

Use these answered entries as a reference point.
>>> reported("Cc1cc(-c2c[nH]c(C(=O)Nc3cccc(F)c3N3CCC(C(=O)N4CC5CCC(C4)O5)CC3)n2)ccn1")
"251 to 1000 nM"
>>> reported("NCC1CCN(c2c(F)cccc2NC(=O)c2nc(-c3ccnc(N)c3)c[nH]2)CC1")
"1 to 50 nM"
>>> reported("Cc1cc(-c2c[nH]c(C(=O)Nc3cccc(F)c3N3CCC(C(=O)N4CCOCC4CN)CC3)n2)ccn1 (stereo not shown)")
"51 to 250 nM"

// lookup IC50 for "Cc1cc(-c2c[nH]c(C(=O)Nc3cccc(F)c3N3CCC(C(=O)N4CC[C@@H](F)C4)CC3)n2)ccn1"
1000 to 5000 nM
